target: Acyl-protein thioesterase 2 (Homo sapiens) (UniProt O95372); assay: LYPLA2 inhibitors, primary screen, counter-screen for PME1 inhibitor project, biochemical, fluorescence polarization, FP-Rh probe ABPP (AID 2177); settings: recombinant LYPLA2, FP-Rh probe fluorescence polarization; at 5.9 µM
Sequence (O95372 whole entry, looked up): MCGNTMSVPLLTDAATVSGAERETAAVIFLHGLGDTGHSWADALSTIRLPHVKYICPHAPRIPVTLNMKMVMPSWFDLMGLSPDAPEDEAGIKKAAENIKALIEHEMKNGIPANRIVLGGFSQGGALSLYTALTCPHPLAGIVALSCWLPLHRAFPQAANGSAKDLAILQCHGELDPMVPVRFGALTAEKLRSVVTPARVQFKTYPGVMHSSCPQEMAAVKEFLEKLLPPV
Among all 320,000 compounds or so, about 1,200 (0.38%) were called active.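 How the source made its calls: active means inhibition above the screen-wide mean plus 3 SD, limit set per campaign (cut at about 26% in these data); inactive means the rest.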 The list comes from a sample in which actives are over-represented; it also holds close analogues and randomly drawn compounds.
Your answer must be one of the following: yes = active, no = inactive

# example entries with known answers
INSERT INTO results (compound, group) VALUES
  ('Cc1ccc(N2CCN(C3=NC(=O)/C(=C\c4cccs4)S3)CC2)cc1', 'yes'),
  ('COc1cccc(NC(=O)c2ccc(Cn3cc([N+](=O)[O-])cn3)o2)c1', 'no'),
  ('CCC(C)NC(=O)c1ccc(NC(=O)CC2SC(N3CCCCC3)=NC2=O)cc1 (stereo unspecified)', 'no'),
  ('Cc1ccccc1N1CCN(CCCN2C(=O)C3CCCCN3C2=O)CC1 (stereo unspecified)', 'no'),
  ('O=C(CCN1CCCO1)N1CCCC(N2CCN(c3cccc(C(F)(F)F)c3)CC2)C1 (stereo unspecified)', 'no'),
  ('COc1ccc(NC(=O)CC2SC(N3CCCCC3)=NC2=O)cc1OC (stereo unspecified)', 'no'),
  ('Cn1cc(CNC(=O)c2ccc(OC3CCN(Cc4ccccn4)CC3)cc2)cn1', 'no'),
  ('Cc1ccc(N2CCN(/N=C/c3cccs3)CC2)cc1', 'no');

-- ask # fetch the recorded call for "Cn1nc(C(F)(F)F)c2cc(NC(=O)OCC(C)(C)C)sc21" here
-- reply no

-- ask # fetch the recorded call for "O=C(c1cc(-c2ccc(Cl)cc2)on1)N1CCN(c2ccccc2)CC1" here
-- reply yes

-- ask # fetch the recorded call for "CCOc1ncccc1C(=O)N(CC)CC(=O)Nc1ccc(NC(C)=O)cc1" here
-- reply no

-- ask # fetch the recorded call for "CN(CCc1ccccn1)C(=O)c1ccc(OC2CCN(CCc3ccccc3)CC2)cc1" here
-- reply yes

-- ask # fetch the recorded call for "Cc1cc(C)c(C#N)c(SCc2ccccc2C(=O)O)n1" here
-- reply no
